System: passive cutaneous anaphylaxis (PCA) reaction
test description: passive cutaneous anaphylaxis (PCA) test, i.v. or oral administration
Format: in vivo, male Charles River Wistar rats
condition parameters: Rattus norvegicus; Oral, 60 mg/kg; read-out: degree (%) of protection, PCA test
Answer 0.0 if inhibition in vivo at 60 mg/kg is under 20%, and 1.0 if it is 20% or more.

[
  {
    "chemical string": "COc1cc2cc3c(=O)[nH]c(C(=O)NO)nc3nc2cc1OC",
    "assigned category": 0.0
  }
]

I'd appreciate it if you could say whether NC(=O)c1nc2nc3ccccc3cc2c(=O)[nH]1 has inhibition in vivo at 60 mg/kg at least equal to 20%.
1.0

Could you tell me if the measured inhibition in vivo at 60 mg/kg of CCOC(=O)c1nc2nc3ccccc3cc2c(=O)[nH]1 reaches 20% or more?
1.0

Could you verify whether the entry CCc1nc2nc3cc(OC)c(OC)cc3cc2c(=O)[nH]1 shows inhibition in vivo at 60 mg/kg of no less than 20%?
0.0

Does inhibition in vivo at 60 mg/kg meet or surpass 20% for CCOC(=O)c1nc2nc3c(OC)c(OC)ccc3cc2c(=O)[nH]1 ?
1.0

Source of measurements: patent US4044134A
